EXPERIMENTAL_SYSTEM: T1, M2-2
T1 construct: also called PD1 mutant M2-2
ASSAY_TEXT: scFv-phage ELISA
MEASURED_PARAMETER: OD490
Please respond with just the number, no unit label.

Consider the binder PD1-49A2 (antibody, V domains shown, scFv-phage in the screening ELISA; whole IgG in the other assays; also called Parent 49A2) VH: QVQLVESGGGVVQPGRSLRLSCAASGFTFSSYAMHWVRQAPGKGLEWVAVISYDGSNKYYADSVKGRFTISRDNPKNTLYLQMNSLRAEDTAVYYCTTTTFDSWGRGTLVTVSS VL: DIVMTQSPLSLPVTPGEPASISCRSSQSLFDSDDGNTYLDWYLQKPGQSPQLLIYTLSHRASGVPDRFSGSGSGTDFTLKISRVEAEDVGIYYCLQRMGFPYTFGQGTKVEIK and give its recorded OD490.
3.8
